Tested on: Saccharomyces cerevisiae;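 note: PSI is a weighted mean of sequencing reads over stability bins, variants kept only with over 10 reads, mCherry proximal and sfGFP distal, peptide attached via GGGS linker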
Protocol notes: protein stability index of tFT-peptide fusion (C-terminal peptide) (PSI (0-1 scale)); higher = more stable (slower turnover)
Test conditions: genetic background: wild type; temperature: 30 C
If the reported protein stability index equals or exceeds 0.7, assign 1. If not, assign -1.

INPUT: Could you verify whether the entry `LACVYEVIPGPS` shows protein stability index of no less than 0.7?
OUTPUT: -1

INPUT: Try this sequence next: `SFSRLWSLFRCL`
OUTPUT: -1

INPUT: Try this sequence next: `WVKPVRAWTILR`
OUTPUT: -1

INPUT: Try this sequence next: `KIYLKDKKKSKK`
OUTPUT: -1

INPUT: Try this sequence next: `FLFCACIRVFSY`
OUTPUT: -1

INPUT: Try this sequence next: `AFRCGGVPGDFA`
OUTPUT: -1

INPUT: Try this sequence next: `RWSVLSRSCSSY`
OUTPUT: 1

INPUT: Try this sequence next: `GCLLVVGGVWGS`
OUTPUT: -1

INPUT: Try this sequence next: `PPPPPTFPPPRS`
OUTPUT: 1

INPUT: Try this sequence next: `KRKEDSILVISC`
OUTPUT: -1

INPUT: Try this sequence next: `VRDLGSPFIVYR`
OUTPUT: -1

INPUT: Try this sequence next: `VCLCFWSVGSWG`
OUTPUT: -1

INPUT: Try this sequence next: `LWCLVWGGVWGV`
OUTPUT: -1

INPUT: Try this sequence next: `SPHTPDPTTTPH`
OUTPUT: -1

INPUT: Try this sequence next: `LLTWENWVVPRL`
OUTPUT: 1

INPUT: Try this sequence next: `RLTKTRNDLRSL`
OUTPUT: -1

INPUT: Try this sequence next: `PPAFLSPPLDPL`
OUTPUT: -1

INPUT: Try this sequence next: `PALGLELYFVLV`
OUTPUT: -1

INPUT: Try this sequence next: `AFVVPLFLCCCG`
OUTPUT: -1

INPUT: Try this sequence next: `TGEIREEWRKNI`
OUTPUT: -1

INPUT: Try this sequence next: `PLGQGRRRPPDA`
OUTPUT: 1

INPUT: Try this sequence next: `GRSNRRPWRSGL`
OUTPUT: -1

INPUT: Try this sequence next: `FLLLVFGLLIDS`
OUTPUT: -1

INPUT: Try this sequence next: `SVYVGAQAFCTC`
OUTPUT: -1

INPUT: Try this sequence next: `GLIATWMYKFVF`
OUTPUT: -1

INPUT: Try this sequence next: `LIWRQEDGGPMT`
OUTPUT: 1

INPUT: Try this sequence next: `ICITIRQTRENK`
OUTPUT: -1

INPUT: Try this sequence next: `LFSCLHCLFSCQ`
OUTPUT: -1

INPUT: Try this sequence next: `PVASSPLLPSPS`
OUTPUT: -1

INPUT: Try this sequence next: `RNNKMYKYQGNL`
OUTPUT: -1

INPUT: Try this sequence next: `LNHQSSVHLNTP`
OUTPUT: 1

INPUT: Try this sequence next: `CGGVLAQREVSG`
OUTPUT: -1

The values you see were collected from the supplement of paper PMC10724198.
